System name: T1, natural Fel d1 (Indoor Biotech, #NA-FD1-2) (cat, UniProt P30438 23-92; P30440 18-109)
T1 construct: Bought natural heterodimeric glycoprotein, chains linked by disulfide bonds; also called nFel d1; nFel d 1
T1 sequence (P30438 other isoform, or with tags, fused parts or gaps, chain 1 of 2): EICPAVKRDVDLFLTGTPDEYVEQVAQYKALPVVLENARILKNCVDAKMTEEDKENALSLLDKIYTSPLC
T1 sequence (P30440 18-109, chain 2 of 2): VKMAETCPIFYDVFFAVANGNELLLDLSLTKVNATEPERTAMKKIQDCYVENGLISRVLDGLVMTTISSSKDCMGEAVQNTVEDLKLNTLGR
Test description: Octet BLI sandwich; nFel d1 pre-complexed with captured mAb-1 H4H1238N (competitor); self-competition value subtracted
Outcome measure: Response of mAb-2 Binding to nFel d1 pre-complexed with mAb-1 (nm)
Could you give me the number in nm? Just the number is fine.

Tell me its Response of mAb-2 Binding to nFel d1 pre-complexed with mAb-1 given H4H2864P (antibody, human IgG4, V domains shown, human IgG4 Fc (H4H prefix)) VH: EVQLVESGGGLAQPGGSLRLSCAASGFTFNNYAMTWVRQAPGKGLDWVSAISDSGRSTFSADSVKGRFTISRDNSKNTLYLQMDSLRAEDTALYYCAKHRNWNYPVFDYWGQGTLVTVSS VL: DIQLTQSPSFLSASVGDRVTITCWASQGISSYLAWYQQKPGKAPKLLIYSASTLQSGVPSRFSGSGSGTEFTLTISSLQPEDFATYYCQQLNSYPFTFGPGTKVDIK as the entry.
0.62
